- experiment: cell viability in Huh7 cells, primary screen, cytotoxicity control for HCV replication inhibitor project, CellTiter-Glo luminescence, basal, 48 h (AID 1143);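 also: Huh7 hepatoma cells carrying a hepatitis C replication reporter with no stimulus; test concentration not given here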
- test.parameters: Huh7 HCV replicon, higher = more signal, called active from +8 up or from −8 down
Below, each of the molecules is paired with its reported z-score value.

{"molecule": "CCN(CC)c1ccc(N2CC=CC34O[C@@H]5C=CCOC(=O)[C@@H]5[C@H]3C(=O)N(CCCO)[C@@H]4C2=O)cc1 (some centres undefined)", "z-score": -2.34}
{"molecule": "COc1ccc(CCNC(=O)[C@@H]2c3ccccc3C(=O)N(CC34CC5CC(CC(C5)C3)C4)[C@H]2c2ccc(CO)cc2)cc1", "z-score": -3.34}
{"molecule": "C=C(CCCC)C(=O)CC[C@H](OC(C)=O)c1ccccc1OCCO", "z-score": -4.57}
{"molecule": "CC(C)(C)OC(=O)CC[C@]1(C(=O)N2CCOCC2)N=C(c2ccc(OCCCO)cc2)O[C@H]1c1ccccc1CN=[N+]=[N-]", "z-score": -0.569}
{"molecule": "COc1ccc(NC(=O)O[C@H]2[C@H](OC(=O)Nc3ccc4c(c3)OCO4)[C@H](OC(=O)Nc3ccc4c(c3)OCO4)[C@@H](OC)O[C@@H]2CO)cc1", "z-score": -2.42}
{"molecule": "COc1ccc(NN2C(C(O)c3ccc(OC)cc3)C=CC3C(=O)N(C4CCCCC4)C(=O)C32)cc1 (centres undefined)", "z-score": -0.914}
{"molecule": "COc1ccc([Si](C)(C)[C@H]2[C@H](CCn3cc([C@H](O)c4ccccc4)nn3)O[C@@]3(C(=O)N(C)c4c(Br)cc(C)cc43)[C@@H]2C)cc1", "z-score": -4.01}
{"molecule": "CN1C=C(C(=O)OCCS(C)(=O)=O)C(C(=O)OCCS(C)(=O)=O)=CC(CCCO)=CC1c1ccc(CN2CCCC2)cc1 (centres undefined)", "z-score": -0.209}
{"molecule": "C[C@H]1NC(=O)C([C@@H](C)OCc2ccccc2)NC(=O)[C@@]23C(=O)N[C@@H](Cc4ccccc4)C2[C@H](C)[C@@]2(C)O[C@H]2C3/C=C/C/C=C\\CNC1=O (some centres undefined)", "z-score": -1.16}
{"molecule": "CCC(CC)C(O)C1C=CC2C(=O)N(C)C(=O)C2N1N1CCCCC1 (centres undefined)", "z-score": 0.374}
{"molecule": "CC(C)(C)OC(=O)CC[C@]1(C(N)=O)N=C(c2ccc(OCCCO)cc2)O[C@H]1c1ccccc1CN=[N+]=[N-]", "z-score": 0.268}
{"molecule": "COCCOC(=O)N1C(=O)[C@@]2(c3cc(C#Cc4ccc(OC)cc4)ccc31)[C@H](c1ccc(OCCO)cc1)N1[C@H](c3ccccc3)[C@H](c3ccccc3)OC(=O)[C@H]1[C@@H]2C(=O)N1CCCCCCC1", "z-score": -3.28}
{"molecule": "CC(C)C(=C=CC[C@@H](O)c1cccc(OCCO)c1)CCO", "z-score": -0.219}
{"molecule": "CCCC=C(CCC)[C@@H](NS(=O)(=O)c1ccc(Cl)cc1)c1ccccc1", "z-score": -2.29}
{"molecule": "CN(C)CCCCNC(=O)[C@H]1C[C@H]2C(=O)NCC(=O)N2[C@H]1c1cccc(OCCO)c1", "z-score": 0.344}
{"molecule": "CCOC(=O)C1=CC[C@@H](c2ccccc2Cl)N(S(=O)(=O)c2ccc(C)cc2)[C@H]1c1cccc(OC)c1", "z-score": -1.84}
{"molecule": "NC(=O)N1C(=O)C2C(C1=O)C1C=C(CCCO)C2C(c2ccc(CN3CCCC3)cc2)N1Cc1cccc(OC(F)(F)F)c1 (centres undefined)", "z-score": -0.596}
{"molecule": "CCOC(=O)C[C@H]1[C@H](OC(=O)c2cc3ccccc3oc2=O)[C@@H](NC(=O)C2CCCCC2)c2cc(OCCCO)ccc2N1C(=O)Cc1ccc(OC)cc1", "z-score": -0.588}
{"molecule": "COC(=O)C1=CC(CCCO)=CC(C2CC2)N(Cc2cccc(OC(F)(F)F)c2)C=C1C(=O)OC (centres undefined)", "z-score": -1.15}
{"molecule": "[N-]=[N+]=NCc1ccccc1C[C@]1(C(=O)NCc2ccccc2)N=C(c2ccc(OCCCO)cc2)O[C@H]1c1ccccc1CN=[N+]=[N-]", "z-score": -4.58}
{"molecule": "CCCCN1CC=CC23O[C@@H]4C=CCOC(=O)[C@@H]4[C@H]2C(=O)N(C(CO)C(C)C)[C@@H]3C1=O (some centres undefined)", "z-score": 0.233}
{"molecule": "CC(=O)n1cc(C(O)C2C=CC3C(=O)N(c4ccccc4)C(=O)C3N2Nc2ccccc2F)c2ccccc21 (centres undefined)", "z-score": -3.27}
{"molecule": "C=C(CCCC)C(=O)CC[C@H](OC(=O)c1cccnc1)c1ccc(CO)o1", "z-score": 0.0536}
{"molecule": "CCOC(=O)C1=CCC(c2cc3ccccc3[nH]2)N(S(=O)(=O)c2ccccc2[N+](=O)[O-])C1 (centres undefined)", "z-score": -5.05}
{"molecule": "CC(C)C[C@H]1NC(=O)[C@@H](C)NC(=O)[C@@]23C(=O)N[C@@H](Cc4ccccc4)C2[C@H](C)[C@@]2(C)O[C@H]2C3/C=C/C/C=C\\CNC1=O (some centres undefined)", "z-score": -0.332}
{"molecule": "NC(=O)[C@@]1(CCS(=O)(=O)c2ccccc2)COC(c2ccc(OCCCO)cc2)=N1", "z-score": -1.5}
{"molecule": "NCCCC[C@@H]1NC(=O)[C@H]2C[C@@H](C(=O)NCc3ccc(F)cc3)[C@@H](c3cccc(OCCO)c3)N2C1=O", "z-score": -0.262}
{"molecule": "COCCOC(=O)N1C(=O)[C@@]2(c3cc(C#Cc4ccc(OC)cc4)ccc31)[C@H](C(=O)Nc1nc3ccccc3s1)[C@H]1C(=O)O[C@H](c3ccccc3)[C@H](c3ccccc3)N1[C@@H]2c1ccccc1OCCO", "z-score": -4.28}
{"molecule": "CN(C)CCCC[C@@H]1NC(=O)[C@@H]2C[C@H](C(=O)NCCCCCCNC(=O)CS)[C@H](c3cccc(OCCO)c3)N2C1=O", "z-score": 0.425}
